# target_or_system: bovine serum albumin (BSA) (Bos taurus)
# Construct: purchased Sigma-Aldrich
# Sequence (P02769 25-607): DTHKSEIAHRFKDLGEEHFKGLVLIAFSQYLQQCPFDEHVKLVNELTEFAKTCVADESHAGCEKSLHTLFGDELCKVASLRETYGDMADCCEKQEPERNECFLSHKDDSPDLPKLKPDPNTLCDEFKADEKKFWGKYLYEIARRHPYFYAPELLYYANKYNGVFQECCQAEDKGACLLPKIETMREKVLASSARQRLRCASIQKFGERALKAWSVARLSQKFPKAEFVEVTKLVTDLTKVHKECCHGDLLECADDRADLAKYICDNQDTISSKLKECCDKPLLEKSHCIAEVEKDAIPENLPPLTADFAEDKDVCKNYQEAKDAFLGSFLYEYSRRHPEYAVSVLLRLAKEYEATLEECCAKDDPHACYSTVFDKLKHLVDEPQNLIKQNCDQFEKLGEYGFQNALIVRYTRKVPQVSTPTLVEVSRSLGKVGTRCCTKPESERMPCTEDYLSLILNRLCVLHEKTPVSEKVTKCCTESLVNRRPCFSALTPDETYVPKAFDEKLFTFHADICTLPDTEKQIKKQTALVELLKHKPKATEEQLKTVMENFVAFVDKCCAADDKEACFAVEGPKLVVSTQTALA
# assay: BSA binding by fluorescence quenching
reported_metric: Kd (µM)
Report the value in µM with no unit label.

Looking for the measured Kd of O=C(O[C@@H]1Cc2c(O)cc(O)cc2O[C@@H]1c1cc(O)c(O)c(O)c1)c1cc(O)c(O)c(O)c1 [EGCG, epigallocatechin-3-gallate, reference compound] , can you help? 0.0649

---

For each of the compounds below, state its Kd.
# target_or_system: free recombinant human DHFR (rHDHFR) (Homo sapiens)
# Construct: made in house; host or cells: Bombyx mori chrysalides
# Sequence (P00374 1-187): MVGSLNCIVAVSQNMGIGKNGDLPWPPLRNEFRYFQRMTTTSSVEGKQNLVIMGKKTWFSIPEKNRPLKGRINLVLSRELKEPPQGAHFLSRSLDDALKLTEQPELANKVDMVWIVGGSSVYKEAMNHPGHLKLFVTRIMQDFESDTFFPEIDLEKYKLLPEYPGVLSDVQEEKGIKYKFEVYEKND
# assay: Binding of polyphenols to free rHDHFR by fluorescence quenching titration
# test_context: Table 2; restates Table 1; read-out: KD, order of binding strengths to rHDHFR depending on D-ring substitution
Report the value in nM with no unit label.

Looking for the measured Kd of `COc1cc(C(=O)O[C@H]2Cc3c(O)cc(O)cc3O[C@@H]2c2ccc(O)c(O)c2)cc(OC)c1OC` , can you help? 900

Looking for the measured Kd of `COc1cc(C(=O)O[C@@H]2Cc3c(O)cc(O)cc3O[C@@H]2c2ccc(O)c(O)c2)cc(OC)c1OC` , can you help? 2100

Looking for the measured Kd of COc1cc(C(=O)OC2Cc3c(O)cc(O)cc3OC2c2ccc(O)c(O)c2)cc(OC)c1O (stereo not drawn) [SYCG] , can you help? 720

Looking for the measured Kd of O=C(O[C@H]1Cc2c(O)cc(O)cc2O[C@@H]1c1ccc(O)c(O)c1)c1cc(O)c(O)c(O)c1 [CG, catechin-3-gallate, reference compound] , can you help? 560

Looking for the measured Kd of O=C(O[C@@H]1Cc2c(O)cc(O)cc2O[C@@H]1c1ccc(O)c(O)c1)c1cc(O)c(O)c(O)c1 [ECG, epicatechin-3-gallate, reference compound] , can you help? 810

Looking for the measured Kd of COc1cc(C(=O)OC2Cc3c(O)cc(O)cc3OC2c2ccc(O)c(O)c2)cc(OC)c1O (stereo not drawn) [SYECG] , can you help? 770
